Cited source for all entries: paper PMC10341549

// pIC50 lookup, one value per entry
system_tested: h5-LOX (Homo sapiens, UniProt P09917, C241A/C562A/D45S/DEL41-43/F15H/K654E/K655N/K656L/L77S/N44G/W14E/W76G)
Sequence (P09917 with tags, fused parts or gaps W14E/F15H/DEL41-43/N44G/D45S/W76G/L77S/C241A/C562A/K654E/K655N/K656L): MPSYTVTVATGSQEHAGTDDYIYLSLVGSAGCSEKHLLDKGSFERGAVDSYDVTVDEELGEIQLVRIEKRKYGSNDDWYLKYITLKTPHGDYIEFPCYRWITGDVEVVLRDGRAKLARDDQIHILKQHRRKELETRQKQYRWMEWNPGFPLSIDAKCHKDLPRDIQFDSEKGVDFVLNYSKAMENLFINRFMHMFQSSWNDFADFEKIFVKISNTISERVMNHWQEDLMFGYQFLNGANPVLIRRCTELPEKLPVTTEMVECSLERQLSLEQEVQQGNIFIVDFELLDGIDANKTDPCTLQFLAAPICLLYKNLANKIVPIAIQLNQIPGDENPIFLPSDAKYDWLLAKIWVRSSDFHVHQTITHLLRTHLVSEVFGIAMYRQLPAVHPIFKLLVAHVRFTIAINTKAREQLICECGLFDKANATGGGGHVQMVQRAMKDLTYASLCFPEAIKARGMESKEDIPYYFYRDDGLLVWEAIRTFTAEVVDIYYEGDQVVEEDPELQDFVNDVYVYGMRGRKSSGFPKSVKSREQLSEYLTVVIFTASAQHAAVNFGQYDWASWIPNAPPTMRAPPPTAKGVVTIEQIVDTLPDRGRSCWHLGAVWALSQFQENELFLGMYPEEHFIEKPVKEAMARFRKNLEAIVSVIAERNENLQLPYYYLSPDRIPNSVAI
assay_name: IC50 determination against h5-LOX
Type: biochemical
study_conditions: 10 μM AA, 50 mM HEPES pH 7.5, 200 µM ATP, ammonium-sulfate precipitate enzyme, 22 °C
pIC50: −log10 of the molar value.

# input Return pIC50 (reported value) for this molecule: `CCCCCCCCCCCCCCCC(=O)SCCNC(=O)CCNC(=O)[C@H](O)C(C)(C)COP(=O)(O)OP(=O)(O)OC[C@H]1O[C@@H](n2cnc3c(N)ncnc32)[C@H](O)[C@@H]1OP(=O)(O)O`
# output 5.48

# input Answer with the recorded pIC50 of `CCCCC/C=C\C/C=C\CCCCCCCC(=O)SCCNC(=O)CCNC(=O)[C@H](O)C(C)(C)COP(=O)(O)OP(=O)(O)OC[C@H]1O[C@@H](n2cnc3c(N)ncnc32)[C@H](O)[C@@H]1OP(=O)(O)O` only.
# output < 4.00

# input Consider the molecule `CCCCC/C=C\C/C=C\C/C=C\CCCCC(=O)SCCNC(=O)CCNC(=O)[C@H](O)C(C)(C)COP(=O)(O)OP(=O)(O)OC[C@H]1O[C@@H](n2cnc3c(N)ncnc32)[C@H](O)[C@@H]1OP(=O)(O)O` . State its measured pIC50.
# output < 3.30

# input Given `CCCCC/C=C\C/C=C\C/C=C\C/C=C\CCCC(=O)SCCNC(=O)CCNC(=O)[C@H](O)C(C)(C)COP(=O)(O)OP(=O)(O)OC[C@H]1O[C@@H](n2cnc3c(N)ncnc32)[C@H](O)[C@@H]1OP(=O)(O)O` , respond with its pIC50.
# output < 3.70

# input Retrieve pIC50 measured for `CCCCCCCC/C=C\CCCCCCCC(=O)SCCNC(=O)CCNC(=O)[C@H](O)C(C)(C)COP(=O)(O)OP(=O)(O)OC[C@H]1O[C@@H](n2cnc3c(N)ncnc32)[C@H](O)[C@@H]1OP(=O)(O)O` and print it.
# output < 4.30

# input // Input: `CCCCCC/C=C\CCCCCCCC(=O)SCCNC(=O)CCNC(=O)[C@H](O)C(C)(C)COP(=O)(O)OP(=O)(O)OC[C@H]1O[C@@H](n2cnc3c(N)ncnc32)[C@H](O)[C@@H]1OP(=O)(O)O` . Output its pIC50 only.
# output 5.70

# input Respond only with pIC50 recorded for `CCCCCCCCCCCCCCCCCC(=O)SCCNC(=O)CCNC(=O)[C@H](O)C(C)(C)COP(=O)(O)OP(=O)(O)OC[C@H]1O[C@@H](n2cnc3c(N)ncnc32)[C@H](O)[C@@H]1OP(=O)(O)O`
# output < 4.30
